src = ChEMBL document CHEMBL1781968

- System: Staphylococcus aureus
- Experiment description: Antibacterial activity against methicillin-resistant Staphylococcus aureus ATCC 33591 by NCCLS method
- Format: functional, organism-based
Quantity name: MBC (µg/mL)
Express it in µg/mL; write the number only.

Below, 4 molecules whose answers are already recorded.
COc1cccc(N(CCCCCC2CCCCC2)c2ccc[n+](C)c2)c1.[I-]
20
COc1ccc2c(c1)c1c(ccc[n+]1C)n2CCCCCC1CCCCC1.[I-]
20
C[n+]1cccc(N(CCCCCC2CCCCC2)c2cccc(C#N)c2)c1.[I-]
10
C[n+]1cccc(N(CCCCCC2CCCCC2)c2cccc(Cl)c2)c1.[I-]
5

Query molecule follows.
Please provide the recorded MBC for C[n+]1cccc(N(CCCCCC2CCCCC2)c2ccccc2Cl)c1.[I-] , tested on Staphylococcus aureus.
10
